Molecular target: Enoyl-acyl-carrier protein reductase (Plasmodium falciparum)
Sequence (Q965D5 whole entry): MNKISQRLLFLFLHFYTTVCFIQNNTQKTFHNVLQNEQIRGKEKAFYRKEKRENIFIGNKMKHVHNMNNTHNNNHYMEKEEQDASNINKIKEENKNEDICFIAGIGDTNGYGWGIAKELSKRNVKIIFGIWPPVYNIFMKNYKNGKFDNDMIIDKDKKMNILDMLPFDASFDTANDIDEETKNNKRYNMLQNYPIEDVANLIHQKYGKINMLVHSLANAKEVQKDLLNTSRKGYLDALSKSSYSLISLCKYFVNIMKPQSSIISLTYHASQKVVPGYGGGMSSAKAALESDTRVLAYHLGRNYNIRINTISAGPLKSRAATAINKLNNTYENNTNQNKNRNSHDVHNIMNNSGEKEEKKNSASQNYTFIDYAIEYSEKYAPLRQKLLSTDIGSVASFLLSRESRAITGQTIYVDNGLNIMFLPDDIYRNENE
Assay: Inhibition of Plasmodium falciparum recombinant enoyl ACP reductase expressed in BL21 (DE3) cells with respect to NADH
Assay type: cell-based
PARAMETER: Ki (µM)

[
  {
    "STRUCTURE": "COc1ccc(/C=C2\\SC(=S)N(c3ccc(O)cc3)C2=O)cc1",
    "Ki / µM": 9.1
  }
]

(A) CCCCCCOc1ccc(/C=C2\SC(=S)N(CCCCCC(=O)O)C2=O)cc1OC
(B) COc1ccc(N2C(=O)/C(=C/c3ccc(C=O)cc3)SC2=S)cc1
(C) O=C1NC(=S)S/C1=C\c1ccc(-c2cc(Cl)ccc2Cl)o1
Sort ascending by Ki. Return value: ordered labels per request.
C, A, B

Just for reference, ChEMBL document CHEMBL1143659 is where these values come from.
